Provenance of the data: the RNAGym collection of RNA variant scans (doi:10.7554/elife.80360)

B1: CPEB3 Ribozyme (parent)
chain: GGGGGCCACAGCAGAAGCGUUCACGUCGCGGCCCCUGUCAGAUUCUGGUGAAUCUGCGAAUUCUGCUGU

Variants of: B1
assay.text: self-cleavage, relative activity (ratio to wild type); higher = more cleavage; co-transcriptional
Listed next: entries and their corresponding self-cleavage.
Reply briefly: the number, and no unit.

ordered.residues: GGGGGCCACAGCAGAAGCGUUCACGUCGCGGCCCCUGUCGGAUACUGGUGAAUCUGCGAAUUCUGCUGU [A40G U44A]
self-cleavage: 0.907

QUERY: Requested field: self-cleavage. Item: GGGGGCCACAGCAGAAGCGUUCACGUCGCGGCCCCUGUCACAUUCUGGUGAAUGUGCGAAUUCUGCUGU [G41C C54G]
RESULT: 0.98

QUERY: Entry GGGGGCCACAGCAGAAGCGUUCACGUCGCGGCCCCUGUCAGCUUCUGUUGAAUCUGCGAAUUCUGCUGU [A42C G48U] has what self-cleavage?
RESULT: 0.988

QUERY: Look up self-cleavage: GGGGGCCACCGCAGAAGCGUUCACGUCGCGGCCCCAGUCAGAUUCUGGUGAAUCUGCGAAUUCUGCUGU [A10C U36A]
RESULT: 0.226

QUERY: Returns the measured self-cleavage for the input variant. Input: GGGGGCCACAGCAGAAGCGUUCACGUCGAGGCCCCUGUCAGAUUGUGGUGAAUCUGCGAAUUCUGCUGU [C29A C45G]
RESULT: 0.605

QUERY: self-cleavage for GGGGGCCACAGCAGAAGCGUUCAGGUCGCGGCCCCUGUCAGAUGCUGGUGAAUCUGCGAAUUCUGCUGU [C24G U44G] ?
RESULT: 0.308

QUERY: # query: self-cleavage of entry GGGGCCCACAGCAGAAGCGUUCACGUCGCGACCCCUGUCAGAUUCUGGUGAAUCUGCGAAUUCUGCUGU [G5C G31A]
RESULT: 0.2

QUERY: May I ask what self-cleavage has been recorded for GGGGGCCGCAGCAGAAGCGUUCACGUCGCGGCCCCUGUCAGAUACUGGUGAAUCUGCGAAUUCUGCUGU [A8G U44A] ?
RESULT: 0.607

QUERY: Quick one: self-cleavage of GGGGGCCACAGCAGAAGCGUUCACGUCGCGGCCCCUGUCAGAUUCUCGUGAAUAUGCGAAUUCUGCUGU [G47C C54A] ?
RESULT: 0.949
